# tgt: T1, CA-14 bound to cannabidiol (CA-14-CBD complex) (non-covalently bound cannabidiol (CBD); AviTag biotinylated by BirA where immobilised (ELISA))
# T1 construct: Same polypeptide as m1, pre-equilibrated with the small molecule cannabidiol; also called CBD-CA-14 complex; not shown: C-terminal AviTag and His tag
# experiment_summary: BLI (Octet RED96), biotinylated DB on streptavidin sensor, 1 uM CA-14 pre-equilibrated with CBD
Would you mind telling me the reported koff of each entry?
Note: a bare number is incomplete; add the unit.

query: Could you share which koff value was measured for dimerization binder DB-6 (VHH, AviTag biotinylated by BirA (BLI), Purified, tagged and biotinylated in BLI; not shown: C-terminal AviTag and His tag (purified form)) VHH: EVQLQASGGGFVQPGGSLRLSCAASGRFSWGEEMGWFRQAPGKEREFVSAISWAATPWQYYADSVKGRFTISRDNSKNTVYLQMNSLRAEDTATYYCADEWHIGHVSYWGQGTQVTVSS ?
result: 0.182 s⁻¹

query: Try this binder too: dimerization binder DB-11 (VHH, AviTag biotinylated by BirA (BLI), Purified, tagged and biotinylated in BLI; not shown: C-terminal AviTag and His tag (purified form)) VHH: EVQLQASGGGFVQPGGSLRLSCAASGTTSDNDTMGWFRQAPGKEREFVSAISWNGGRDEYYADSVKGRFTISRDNSKNTVYLQMNSLRAEDTATYYCAYQDNRSWQEYWGQGTQVTVSS
result: 0.084 s⁻¹

query: Try this binder too: dimerization binder DB-18 (VHH, AviTag biotinylated by BirA (BLI), Purified and tagged in BLI (biotinylated) and SEC; also called 1DB-18; not shown: C-terminal AviTag and His tag (purified form)) VHH: EVQLQASGGGFVQPGGSLRLSCAASGGYSRADDMGWFRQAPGKEREFVSAISFGETDSFYYADSVKGRFTISRDNSKNTVYLQMNSLRAEDTATYYCAYHNYTNMFEYWGQGTQVTVSS
result: 0.0227 s⁻¹

query: Try this binder too: dimerization binder DB-21 (VHH, AviTag biotinylated by BirA (BLI), Purified and tagged in BLI (biotinylated) and SEC; the form used in the sandwich ELISA-like assay is not clearly stated (same id used for all); not shown: C-terminal AviTag and His tag (purified form)) VHH: EVQLQASGGGFVQPGGSLRLSCAASGTTYGQTNMGWFRQAPGKEREFVSAISGLQGRDLYYADSVKGRFTISRDNSKNTVYLQMNSLRAEDTATYYCAFHDFLRMWEYWGQGTQVTVSS
result: 0.000617 s⁻¹

Entry source: patent US20220177605A1
